# protocol-text: Octanol-water partition coefficient, log D of the compound by shake-flask method
# Assay type: physicochemical
Below is a list of entries, each paired with its recorded logD value.

item-smiles: Cn1ncc(C(=O)N2[C@@H]3CC[C@H]2C[C@@H](Nc2cc(=O)n(C)c4ncccc24)C3)c1Cl
logD: 1.8
//
item-smiles: Cc1onc(C(=O)N2[C@@H]3CC[C@H]2C[C@@H](Nc2cc(=O)n(C)c4nccnc24)C3)c1C
logD: 1.8
//
item-smiles: Cn1ncc(C(=O)N2CCC(Nc3cc(=O)[nH]c4ccccc34)CC2)c1Cl
logD: 1.6
//
item-smiles: Cn1ncc(C(=O)N2CCC(Nc3cc(=O)[nH]c4ccc(F)cc34)CC2)c1Cl
logD: 2
//
item-smiles: Cc1onc(C(=O)N2CCC(Nc3cc(=O)n(C)c4cc(F)c(F)cc34)CC2)c1C
logD: 2.3

* * *

# Tested on: Mycolicibacterium smegmatis
# protocol-text: Antimicrobial activity against Mycobacterium smegmatis mc2155 at 100 uM
# Assay type: functional, organism-based
# assay-context: str. MC2 155
The source made the active and inactive calls. The calls are words filed in the database; no cut-off is given here.

item-smiles: Cn1ncc(C(=O)N2CCC(Nc3cc(=O)[nH]c4cc(F)c(F)cc34)CC2)c1Cl
Activity: inactive
//
item-smiles: Cc1c(C(=O)N2CCC(Nc3cc(=O)[nH]c4ccc(F)cc34)CC2)nnn1C
Activity: inactive
//
item-smiles: Cn1ncc(C(=O)N2CCC(Oc3cc(=O)[nH]c4ccccc34)CC2)c1Cl
Activity: inactive
//
item-smiles: Cc1onc(C(=O)N2CCC(Nc3cc(=O)[nH]c4ccc(F)cc34)CC2)c1C
Activity: inactive
//
item-smiles: Cn1ncc(C(=O)N2CCC(Nc3cc(=O)[nH]c4ccccc34)CC2)c1Cl
Activity: inactive
//
item-smiles: Cc1c(C(=O)N2CCC(Nc3cc(=O)[nH]c4ccccc34)CC2)cnn1C
Activity: inactive
//
item-smiles: Cc1onc(C(=O)N2CCC(Nc3cc(=O)n(C)c4cc(F)c(F)cc34)CC2)c1C
Activity: inactive
//
item-smiles: Cn1ncc(C(=O)N2CCC(Nc3cc(=O)n(C)c4ccccc34)CC2)c1Cl
Activity: inactive
//
item-smiles: Cn1ncc(C(=O)N2CCC(Nc3cc(=O)n(C)c4cc(F)c(F)cc34)CC2)c1Cl
Activity: inactive
//
item-smiles: Cc1onc(C(=O)N2CCC(Nc3cc(=O)[nH]c4cc(F)c(F)cc34)CC2)c1C
Activity: inactive

* * *

# Tested on: Mycolicibacterium smegmatis
# protocol-text: Antimicrobial activity against Mycobacterium smegmatis mc2155 at 100 uM
# Type: functional, organism-based
# assay-context: str. MC2 155
Calls of active or inactive are those of the source. The rule behind the calls is not given here.

item-smiles: Cn1ncc(C(=O)N2CCC(Nc3cc(=O)[nH]c4ccc(F)cc34)CC2)c1C(F)(F)F
Activity: inactive
--
item-smiles: Cn1cc(C(=O)N2CCC(Nc3cc(=O)[nH]c4ccccc34)CC2)cn1
Activity: inactive
--
item-smiles: CN(c1cc(=O)[nH]c2ccccc12)C1CCN(C(=O)c2cnn(C)c2Cl)CC1
Activity: inactive
--
item-smiles: CCn1c(=O)cc(NC2CCN(C(=O)c3cnn(C)c3Cl)CC2)c2ccccc21
Activity: inactive
--
item-smiles: Cn1ncc(C(=O)N2CCC(Nc3cc(=O)[nH]c4ccc(F)cc34)CC2)c1Cl
Activity: inactive
--
item-smiles: Cn1ncc(C(=O)N2CCC(Nc3cc(=O)[nH]c4c(F)cccc34)CC2)c1Cl
Activity: inactive
--
item-smiles: Cn1ncc(C(=O)N2CCC(Nc3cc(=O)[nH]c4cc(F)ccc34)CC2)c1Cl
Activity: inactive
--
item-smiles: CC(C)n1ncc(C(=O)N2CCC(Nc3cc(=O)[nH]c4ccccc34)CC2)c1Cl
Activity: inactive
--
item-smiles: Cn1ncc(C(=O)N2CCC(Nc3cc(=O)[nH]c4c(F)c(F)ccc34)CC2)c1Cl
Activity: inactive
--
item-smiles: CCn1ncc(C(=O)N2CCC(Nc3cc(=O)[nH]c4ccc(F)cc34)CC2)c1Cl
Activity: inactive

* * *

# System: Mycobacterium tuberculosis
# protocol-text: Antimycobacterial activity against Mycobacterium tuberculosis over expressing TopA after 5 days by standard microdilution method
# Format: functional
# assay-context: 120 h

compound: C[C@H]1COC2(CCN(c3nc(=O)c4cc(C(F)(F)F)cc([N+](=O)[O-])c4s3)CC2)O1 [BTZ-043]
unit: µM
MIC: 0.012
//
compound: Cn1ncc(C(=O)N2CCC(Nc3cc(=O)[nH]c4ccccc34)CC2)c1Cl
unit: µM
MIC: 3.1
//
compound: COc1c(N2C[C@@H]3CCCN[C@@H]3C2)c(F)cc2c(=O)c(C(=O)O)cn(C3CC3)c12 [MOXIFLOXACIN]
unit: µM
MIC: 0.31
//
compound: Cn1ncc(C(=O)N2CCC(Nc3cc(=O)[nH]c4ccc(F)cc34)CC2)c1Cl
unit: µM
MIC: 0.8
//
compound: NNC(=O)c1ccncc1 [ISONIAZID]
unit: µM
MIC: 0.45
//
compound: COc1nc2ccc(Br)cc2cc1[C@@H](c1ccccc1)[C@@](O)(CCN(C)C)c1cccc2ccccc12 [BEDAQUILINE]
unit: µM
MIC: 0.8
//
compound: Cn1ncc(C(=O)N2CCC(Nc3cc(=O)[nH]c4cc(F)c(F)cc34)CC2)c1Cl
unit: µM
MIC: 0.4
//
compound: CO[C@H]1/C=C/O[C@@]2(C)Oc3c(C)c(O)c4c(O)c(c(/C=N/N5CCN(C)CC5)c(O)c4c3C2=O)NC(=O)/C(C)=C\C=C\[C@H](C)[C@H](O)[C@@H](C)[C@@H](O)[C@@H](C)[C@H](OC(C)=O)[C@@H]1C [RIFAMPIN]
unit: µM
MIC: 0.03

* * *

# System: Mycobacterium tuberculosis
# protocol-text: Antimycobacterial activity against Mycobacterium tuberculosis H37Rv after 5 days by standard microdilution method
# Format: functional
# assay-context: 120 h
experimental-endpoint: log10(MIC) (log10 of the value in µM)

item-smiles: Cn1ncc(C(=O)N2[C@@H]3CC[C@H]2C[C@@H](Nc2cc(-c4ccccc4)[nH]c(=O)c2)C3)c1Cl
experimental-endpoint: log10(MIC)
recorded-measurement: 0.20

item-smiles: Cc1onc(C(=O)N2CCC(Nc3cc(=O)[nH]c4cc(F)c(F)cc34)CC2)c1C
experimental-endpoint: log10(MIC)
recorded-measurement: -0.70

item-smiles: Cn1ncc(C(=O)N2[C@@H]3CC[C@H]2C[C@@H](Nc2cc(=O)[nH]c4ccc(F)cc24)C3)c1Cl
experimental-endpoint: log10(MIC)
recorded-measurement: -0.41

item-smiles: Cn1ncc(C(=O)N2CCC(Nc3cc(=O)[nH]c4cc(F)ccc34)CC2)c1Cl
experimental-endpoint: log10(MIC)
recorded-measurement: 0.49

item-smiles: Cn1ncc(C(=O)N2CCC(Nc3cc(-c4ccccc4)[nH]c(=O)c3)CC2)c1Cl
experimental-endpoint: log10(MIC)
recorded-measurement: 1.70

* * *

# protocol-text: Cytotoxicity against human A549 cells after 72 hrs by resazurin based fluorescence assay
# Assay type: cell-based
# assay-context: read-out: MIC
experimental-endpoint: MCC at 72 h

item-smiles: Cn1ncc(C(=O)N2CCC(Nc3cc(=O)[nH]c4ccc(F)cc34)CC2)c1Cl
recorded-measurement: > 200 µM

item-smiles: Cn1ncc(C(=O)N2CCC(Nc3cc(=O)[nH]c4ccccc34)CC2)c1Cl
recorded-measurement: > 200 µM

item-smiles: Cc1onc(C(=O)N2[C@@H]3CC[C@H]2C[C@@H](Nc2cc(=O)n(C)c4nccnc24)C3)c1C
recorded-measurement: > 50 µM

item-smiles: Cn1ncc(C(=O)N2CCC(Nc3cc(=O)[nH]c4cc(F)c(F)cc34)CC2)c1Cl
recorded-measurement: > 100 µM

item-smiles: Cn1ncc(C(=O)N2[C@@H]3CC[C@H]2C[C@@H](Nc2cc(=O)n(C)c4ncccc24)C3)c1Cl
recorded-measurement: > 50 µM

item-smiles: Cc1onc(C(=O)N2[C@@H]3CC[C@H]2C[C@@H](Nc2cc(=O)n(C)c4cc(F)c(F)cc24)C3)c1C
recorded-measurement: > 50 µM

item-smiles: Cn1ncc(C(=O)N2CCC(Nc3cc(=O)n(C)c4ccccc34)CC2)c1Cl
recorded-measurement: > 100 µM

item-smiles: Cc1onc(C(=O)N2CCC(Nc3cc(=O)n(C)c4cc(F)c(F)cc34)CC2)c1C
recorded-measurement: > 16 µM

item-smiles: Cn1ncc(C(=O)N2[C@@H]3CC[C@H]2C[C@@H](Nc2n[nH]c4ccc(F)cc24)C3)c1Cl
recorded-measurement: > 50 µM

* * *

Listing of entries alongside the reported fold change (FC).
# System: Mycolicibacterium smegmatis
# protocol-text: Ratio of IC50 for Mycobacterium smegmatis DprE1 Y321H mutant to IC50 for Mycobacterium smegmatis recombinant wild type DprE1
experimental-endpoint: fold change (FC)

item-smiles: Cn1ncc(C(=O)N2CCC(Nc3cc(=O)[nH]c4ccccc34)CC2)c1Cl
inequality-sign: >
recorded-measurement: 63
--
item-smiles: Cn1ncc(C(=O)N2[C@@H]3CC[C@H]2C[C@@H](Nc2cc(=O)[nH]c4ccc(F)cc24)C3)c1Cl
inequality-sign: =
recorded-measurement: 12
--
item-smiles: C[C@H]1C[C@H](Nc2cc(=O)[nH]c3cc(F)c(F)cc23)CCN1C(=O)c1cnn(C)c1Cl
inequality-sign: =
recorded-measurement: 47
--
item-smiles: Cn1ncc(C(=O)N2CCC(Nc3cc(=O)[nH]c4ccc(F)cc34)CC2)c1Cl
inequality-sign: =
recorded-measurement: 111
--
item-smiles: Cn1ncc(C(=O)N2CCC(Nc3cc(=O)[nH]c4cc(F)c(F)cc34)CC2)c1Cl
inequality-sign: >
recorded-measurement: 143
--
item-smiles: Cc1onc(C(=O)N2CCC(Nc3cc(=O)n(C)c4cc(F)c(F)cc34)CC2)c1C
inequality-sign: =
recorded-measurement: 165

Ref: ChEMBL document CHEMBL3286182
